tested on: c-Src; test: phosphorylation enrichment, bacterial display (enrichment ratio); higher = better substrate or ligand; peptides without Tyr show the background;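 note: 11-residue human phosphosite peptides and single-mutation variants displayed on the E. coli surface, counted by deep sequencing, each peptide's frequency after selection divided by its frequency in the unselected input library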;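 note: frequency after pTyr selection over input frequency; kinase dosed for 20-30% of maximal phosphorylation in three min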
Readout type: phosphorylation enrichment
// no unit, no text: just the number

Some sequences with known phosphorylation enrichment results, for comparison:
Sequence string: ESPGLCGFLNV [BCR_Y910_Y910C]
phosphorylation enrichment: 0.453
//
Sequence string: ESKKHYGYSLY [ANXA3_Y295_F291S]
phosphorylation enrichment: 0.541
//
Sequence string: VVEYGYEFFAK [PPP1CB_Y254_D252Y]
phosphorylation enrichment: 0.719
//
Sequence string: SFLFHYADDSF [RAB3C_Y50_R49H]
phosphorylation enrichment: 0.466
//
Sequence string: FEEDPYLVVNP [MCM6_Y810_YF]
phosphorylation enrichment: 2.65

### Prompt Fill in: phosphorylation enrichment of IGSQRYQLGVR [RB1_Y446_K447Q] is ___
### Response 0.343

### Prompt Fill in: phosphorylation enrichment of INNIDYFKNTT [FGFR2_Y656_K659N_YF] is ___
### Response 0.301

### Prompt Fill in: phosphorylation enrichment of PTATSYNPNLA [GABRA1_Y375_T376N] is ___
### Response 1.43

### Prompt Fill in: phosphorylation enrichment of RRAKGYPINLF [ITGB2_Y125_D128N_YF] is ___
### Response 0.554

### Prompt Fill in: phosphorylation enrichment of SWSTSYSGFRC [NKAPL_Y91_Y96C_YF] is ___
### Response 0.972

### Prompt Fill in: phosphorylation enrichment of SSSGGYGGGFG [KRT19_Y61_A60G_YF] is ___
### Response 0.356

###

target: FGFR1 (UniProt P11362); experiment: phosphorylation enrichment, bacterial display (enrichment ratio); higher = better substrate or ligand; peptides without Tyr show the background
Sequence (P11362 whole entry, looked up): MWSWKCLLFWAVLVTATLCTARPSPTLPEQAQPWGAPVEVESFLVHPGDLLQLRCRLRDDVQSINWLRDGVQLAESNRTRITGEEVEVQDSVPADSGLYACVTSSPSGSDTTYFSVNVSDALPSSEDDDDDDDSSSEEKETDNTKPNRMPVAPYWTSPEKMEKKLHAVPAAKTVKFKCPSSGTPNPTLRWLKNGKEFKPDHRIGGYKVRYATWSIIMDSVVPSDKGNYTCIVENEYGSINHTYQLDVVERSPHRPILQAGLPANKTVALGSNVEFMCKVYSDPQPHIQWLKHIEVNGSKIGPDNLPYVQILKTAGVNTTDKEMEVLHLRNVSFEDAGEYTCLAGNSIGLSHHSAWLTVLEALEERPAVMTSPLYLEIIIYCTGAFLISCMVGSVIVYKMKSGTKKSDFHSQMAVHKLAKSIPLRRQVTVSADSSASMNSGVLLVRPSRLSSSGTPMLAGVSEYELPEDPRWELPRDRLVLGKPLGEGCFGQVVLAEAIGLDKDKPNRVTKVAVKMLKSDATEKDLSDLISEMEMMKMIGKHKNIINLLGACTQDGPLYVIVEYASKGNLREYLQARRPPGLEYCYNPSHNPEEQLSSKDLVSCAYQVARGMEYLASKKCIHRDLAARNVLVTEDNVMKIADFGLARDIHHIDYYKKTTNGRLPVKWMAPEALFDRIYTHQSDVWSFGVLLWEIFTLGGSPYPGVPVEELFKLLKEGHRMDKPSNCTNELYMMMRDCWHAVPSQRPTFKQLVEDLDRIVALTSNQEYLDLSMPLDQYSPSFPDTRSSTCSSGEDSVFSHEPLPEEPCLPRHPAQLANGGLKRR
Readout type: phosphorylation enrichment
// no unit, no text: just the number

Some sequences with known phosphorylation enrichment results, for comparison:
Sequence string: YMRGMYFRMTD [PLA2G6_Y541_K545T]
phosphorylation enrichment: 0.592
//
Sequence string: NIWDSYTTNKV [GNB1_Y85_I80N]
phosphorylation enrichment: 0.497

### Prompt Fill in: phosphorylation enrichment of CLRIDYERVSQ [DSP_Y1542_R1537C] is ___
### Response 0.574

### Prompt Fill in: phosphorylation enrichment of EDASEYYENYI [PARP4_Y214_F215Y] is ___
### Response 1.66

### Prompt Fill in: phosphorylation enrichment of LDPDSYNKFEN [FOXC1_Y159_M161K] is ___
### Response 0.765

### Prompt Fill in: phosphorylation enrichment of KHTLSFVDVGT [SDHA_Y629_Y629F] is ___
### Response 0.348

### Prompt Fill in: phosphorylation enrichment of LDTFIYDAAVL [GRIN2A_Y730_A727T] is ___
### Response 0.827

###

target: MERTK (UniProt Q12866); test: phosphorylation enrichment, bacterial display (enrichment ratio); higher = better substrate or ligand; peptides without Tyr show the background
Sequence (Q12866 whole entry, looked up): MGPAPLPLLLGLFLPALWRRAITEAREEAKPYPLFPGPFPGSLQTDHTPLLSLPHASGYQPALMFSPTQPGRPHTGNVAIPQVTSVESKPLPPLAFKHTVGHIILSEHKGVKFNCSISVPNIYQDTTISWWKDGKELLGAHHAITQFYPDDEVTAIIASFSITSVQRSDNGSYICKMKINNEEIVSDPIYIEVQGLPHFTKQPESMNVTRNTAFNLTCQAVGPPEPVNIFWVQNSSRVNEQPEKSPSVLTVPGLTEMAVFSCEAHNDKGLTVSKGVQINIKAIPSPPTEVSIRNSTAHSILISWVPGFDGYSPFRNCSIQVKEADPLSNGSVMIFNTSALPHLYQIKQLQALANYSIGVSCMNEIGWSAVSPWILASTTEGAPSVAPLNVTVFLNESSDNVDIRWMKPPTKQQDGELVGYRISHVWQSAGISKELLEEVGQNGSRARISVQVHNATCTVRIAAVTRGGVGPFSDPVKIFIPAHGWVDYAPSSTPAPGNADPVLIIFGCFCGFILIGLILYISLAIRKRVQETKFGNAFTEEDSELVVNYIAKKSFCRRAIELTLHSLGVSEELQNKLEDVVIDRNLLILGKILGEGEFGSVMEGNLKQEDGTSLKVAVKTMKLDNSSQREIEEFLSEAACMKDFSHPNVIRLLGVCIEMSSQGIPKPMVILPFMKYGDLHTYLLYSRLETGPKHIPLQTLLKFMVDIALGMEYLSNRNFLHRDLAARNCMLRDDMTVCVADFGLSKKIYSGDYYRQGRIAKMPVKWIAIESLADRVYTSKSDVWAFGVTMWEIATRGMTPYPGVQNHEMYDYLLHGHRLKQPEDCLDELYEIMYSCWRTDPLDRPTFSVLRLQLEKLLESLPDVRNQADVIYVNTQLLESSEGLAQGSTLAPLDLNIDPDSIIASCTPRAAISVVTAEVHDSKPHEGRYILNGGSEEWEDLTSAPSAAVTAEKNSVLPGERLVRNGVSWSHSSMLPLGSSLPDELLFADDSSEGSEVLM
Classes (phosphorylation enrichment): bin A: < 0.4; bin B: ≥ 0.4 and < 0.5; bin C: ≥ 0.5

Sequence string: AHLTEYLSTHY [UQCRC1_Y219_D215H]
Group: bin B
//
Sequence string: ISRLKYPVSQQ [BTK_Y375]
Group: bin A
//
Sequence string: LERYIYNPEEF [HLA-DPB1_Y59_R61P]
Group: bin C
//
Sequence string: RGYRQYAYDGK [HLA-A_Y140_D140Y]
Group: bin B

### Prompt State the class of the sequence shown: DQLVKYGVNPG [TMPO_Y127]
### Response bin A

### Prompt State the class of the sequence shown: SIYKDYYRYNF [PLA2G2D_Y85]
### Response bin C

### Prompt State the class of the sequence shown: RLQEDYDHSFF [ESD_Y258_G257D_YF]
### Response bin C

### Prompt State the class of the sequence shown: PMQLPYDSRWE [PDGFRA_Y582]
### Response bin A

### Prompt State the class of the sequence shown: FYRNVYHLASV [RBL1_Y796_K794N]
### Response bin A

Hey, just so you know, these numbers are from the supplement of paper PMC10065799.
